Measured clearance by item
assay: In vivo pharmacokinetic experiment in CD-1 mice; details: mouse, plasma, iv; CD-1 female mice, injection (1 mg/kg)
Reply with just the number (in mL/min/kg).

# count of solved cases: 2
>  <SMILES_CODE>
COc1cc(N2CCN(C)CC2)ccc1Nc1ncc(C(F)(F)F)c(Oc2cccc3c2C(=O)N(C)C32CC2)n1

>  <UNIT_SYMBOL>
mL/min/kg

>  <clearance>
40.2

$$$$
>  <SMILES_CODE>
COc1cc(N2CC3(CCN(C)CC3)C2)ccc1Nc1ncc(Br)c(Oc2cccc3c2C(=O)N(C)C32CC2)n1

>  <UNIT_SYMBOL>
mL/min/kg

>  <clearance>
15

$$$$

Ask: Find the measured clearance of COc1cc(N2CC3(CCN(C)CC3)C2)c(F)cc1Nc1ncc(C(F)(F)F)c(Oc2cccc3c2C(=O)N(C)C32CC2)n1 and report it.
Reply: 19.6

Ask: Could you please provide reported clearance for COc1cc(N2CC3(CCN(C)CC3)C2)c(F)cc1Nc1ncc(Cl)c(Oc2cccc3c2C(=O)N(C)C32CC2)n1 ? Thanks!
Reply: 12

###

assay: In vivo pharmacokinetic experiment in CD-1 mice; settings: mouse, plasma; CD-1 female mice, oral administration, 5 mg/kg
VALUE_TYPE: half-life (h)
Give the quantity in h, number only.

Ask: For the compound COc1cc(N2CC3(CCN(C)CC3)C2)ccc1Nc1ncc(C(F)(F)F)c(Oc2cccc3c2C(=O)N(C)C32CC2)n1 , give its measured half-life value.
Reply: 3.06

###

tested on: PC3 cells; test: PC3 cell proliferation, 2D activity assay (Cell Titer-Lumi, 72 h); type: cell-based, human; details: read-out: 2D inhibitory activity against PC3 cells IC50
IC50 overview

>  <COMPOUND>
COc1cc(C(=O)N2CCC3(CCN(C)C3)C2)ccc1Nc1ncc(C(F)(F)F)c(Oc2cccc3c2C(=O)N(C)C32CC2)n1 (stereo not drawn)

>  <DATA_VALUE>
> 2000 nM

$$$$
>  <COMPOUND>
COc1cc(N2CC3(CCN(C)CC3)C2)ccc1Nc1ncc(Cl)c(Oc2cccc3c2C(=O)N(C)C32CCC2)n1

>  <DATA_VALUE>
> 2000 nM

$$$$

Now look at this entry.
Ask: Answer with the recorded IC50 for the compound listed here: COc1cc(N2CC3CCN(C)C3C2)ccc1Nc1ncc(Cl)c(Oc2cccc3c2C(=O)N(C)C32CC2)n1 (stereo not drawn)
Reply: > 2000 nM

###

target: FAK recombinant protein (Homo sapiens (Human)); experiment: Inhibitory activity against FAK enzyme (HTRF, TK substrate); type: biochemical
Sequence (Q05397 whole entry): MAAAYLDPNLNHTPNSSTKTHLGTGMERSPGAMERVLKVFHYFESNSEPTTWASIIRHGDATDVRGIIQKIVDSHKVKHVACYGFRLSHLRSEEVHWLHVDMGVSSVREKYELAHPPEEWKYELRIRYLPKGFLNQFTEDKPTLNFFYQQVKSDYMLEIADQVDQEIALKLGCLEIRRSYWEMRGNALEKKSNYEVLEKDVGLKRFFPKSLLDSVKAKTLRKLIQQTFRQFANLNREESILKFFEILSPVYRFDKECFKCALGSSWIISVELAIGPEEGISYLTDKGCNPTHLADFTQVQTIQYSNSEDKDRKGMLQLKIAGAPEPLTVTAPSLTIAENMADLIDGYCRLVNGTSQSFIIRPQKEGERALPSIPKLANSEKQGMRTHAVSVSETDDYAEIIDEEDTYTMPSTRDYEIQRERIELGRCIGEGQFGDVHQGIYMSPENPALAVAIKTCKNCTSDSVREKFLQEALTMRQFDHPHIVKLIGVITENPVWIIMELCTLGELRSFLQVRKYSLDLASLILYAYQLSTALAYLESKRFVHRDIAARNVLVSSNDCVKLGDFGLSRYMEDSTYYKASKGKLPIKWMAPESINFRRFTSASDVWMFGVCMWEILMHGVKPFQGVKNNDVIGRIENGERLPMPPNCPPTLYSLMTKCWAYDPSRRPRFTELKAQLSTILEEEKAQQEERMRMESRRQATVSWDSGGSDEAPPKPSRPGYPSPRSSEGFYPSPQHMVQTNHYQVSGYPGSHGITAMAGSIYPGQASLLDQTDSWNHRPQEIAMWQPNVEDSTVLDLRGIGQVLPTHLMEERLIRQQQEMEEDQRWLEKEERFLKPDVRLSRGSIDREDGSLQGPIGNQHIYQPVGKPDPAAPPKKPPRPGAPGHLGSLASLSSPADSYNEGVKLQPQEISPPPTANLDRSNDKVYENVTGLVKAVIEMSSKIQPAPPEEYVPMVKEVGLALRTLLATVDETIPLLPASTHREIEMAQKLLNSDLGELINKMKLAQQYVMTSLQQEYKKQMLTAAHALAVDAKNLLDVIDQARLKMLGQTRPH
Quick reference for IC50 among some compounds

>  <SMILES_CODE>
COc1cc(N2CCC(N3CCN(C)CC3)CC2)ccc1Nc1ncc(Br)c(Oc2cccc3c2C(=O)N(C)C32CC2)n1

>  <IC50>
< 20 nM

$$$$
>  <SMILES_CODE>
COc1cc(C(=O)NC2CCN(C)CC2)c(Cl)cc1Nc1ncc(C(F)(F)F)c(Oc2cccc3c2C(=O)N(C)C32CC2)n1

>  <IC50>
< 20 nM

$$$$
>  <SMILES_CODE>
COc1cc(C(=O)NC2CC3(CCN(C)CC3)C2)ccc1Nc1ncc(C(F)(F)F)c(Oc2cccc3c2C(=O)N(C)C32CC2)n1

>  <IC50>
< 20 nM

$$$$
>  <SMILES_CODE>
COc1cc(N2CCC3(CCN(C)CC3)C2=O)ccc1Nc1ncc(C(F)(F)F)c(Oc2cccc3c2C(=O)N(C)C32CC2)n1

>  <IC50>
< 20 nM

$$$$
>  <SMILES_CODE>
COc1cc(N2CCC(N3CC4CC(C3)N4C)CC2)ccc1Nc1ncc(Cl)c(Oc2cccc3c2C(=O)N(C)C32CC2)n1

>  <IC50>
< 20 nM

$$$$
>  <SMILES_CODE>
COc1cc(C2=NOC3(CCN(C)CC3)C2)ccc1Nc1ncc(C(F)(F)F)c(Oc2cccc3c2C(=O)N(C)C32CC2)n1

>  <IC50>
< 20 nM

$$$$

Ask: Send back FAK recombinant protein (Homo sapiens (Human)) IC50 of COc1cc(CNC2CCN(C)CC2)ccc1Nc1ncc(Cl)c(Oc2cccc3c2C(=O)N(C)C32CC2)n1 only.
Reply: < 20 nM

###

assay: In vivo pharmacokinetic experiment in CD-1 mice; details: mouse, plasma; CD-1 female mice, oral administration (10 mg/kg)
The label Yes is reserved for half-life strictly under 3 h; No covers values equal to or above it.

Observe how each entry below is paired with its result.
>  <SMILES_CODE>
COc1cc(C(=O)NC2CCN(C)CC2)c(F)cc1Nc1ncc(Cl)c(Oc2cccc3c2C(=O)N(C)C32CC2)n1

>  <CLASS_LABEL>
Yes

$$$$
>  <SMILES_CODE>
COc1cc(N2CC3(CCN(C)CC3)C2)ccc1Nc1ncc(Br)c(Oc2cccc3c2C(=O)N(C)C32CC2)n1

>  <CLASS_LABEL>
No

$$$$
>  <SMILES_CODE>
COc1cc(N2CC3(CCN(C)CC3)C2)ccc1Nc1ncc(Cl)c(Oc2cccc3c2C(=O)N(C)C32CC2)n1

>  <CLASS_LABEL>
Yes

$$$$
>  <SMILES_CODE>
COc1cc(N2CC3(CCN(C)CC3)C2)c(F)cc1Nc1ncc(C(F)(F)F)c(Oc2cccc3c2C(=O)N(C)C32CC2)n1

>  <CLASS_LABEL>
No

$$$$

Ask: # check: half-life < 3 h for COc1cc(N2CCN(C)CC2)ccc1Nc1ncc(C(F)(F)F)c(Oc2cccc3c2C(=O)N(C)C32CC2)n1
Reply: No

Ask: Check if half-life falls below 3 h for COc1cc(N2CC3(CCN(C)CC3)C2)c(F)cc1Nc1ncc(Cl)c(Oc2cccc3c2C(=O)N(C)C32CC2)n1 .
Reply: No

###

The following compounds are listed with their measured IC50 values.
biological target: FAK recombinant protein (Homo sapiens (Human)); assay: Inhibitory activity against FAK enzyme (HTRF, TK substrate)

>  <SMILES_CODE>
COc1cc(C(=O)NC2CC3(CCN(C)CC3)C2)c(F)cc1Nc1ncc(C(F)(F)F)c(Oc2cccc3c2C(=O)N(C)C32CC2)n1

>  <IC50>
< 20 nM

$$$$
>  <SMILES_CODE>
COc1cc(N2CCN(C)CC2)ccc1Nc1ncc(Cl)c(Oc2cccc3c2C(=O)N(C)C32CC2)n1

>  <IC50>
< 20 nM

$$$$
>  <SMILES_CODE>
COc1cc(C(=O)N2CCC23CCN(C)CC3)ccc1Nc1ncc(C(F)(F)F)c(Oc2cccc3c2C(=O)N(C)C32CC2)n1

>  <IC50>
< 20 nM

$$$$

Switching to the query record.
Ask: Note IC50 for the compound shown: COc1cc(N2CCN(C)CC2)ccc1Nc1ncc(C(F)(F)F)c(Cc2cccc3c2C(=O)N(C)C32CC2)n1
Reply: < 20 nM

###

assay: In vivo pharmacokinetic experiment in CD-1 mice; details: mouse, plasma, intravenous; CD-1 female mice, injection (1 mg/kg); read-out: Vdss
VALUE_TYPE: Vd (L/kg)
Give the quantity in L/kg, number only.

Ask: Input COc1cc(C(=O)NC2CCN(C)CC2)ccc1Nc1ncc(C(F)(F)F)c(Oc2cccc3c2C(=O)N(C)C32CC2)n1 [Compound 3] , output reported Vd.
Reply: 6.14

###

assay: In vivo pharmacokinetic experiment in CD-1 mice; details: mouse, plasma, iv; CD-1 female mice, injection (1 mg/kg); read-out: Vdss
Readings of Vd for the listed compounds

Guide cases for Vd, answers given:
>  <SMILES_CODE>
COc1cc(N2CC3(CCN(C)CC3)C2)ccc1Nc1ncc(C(F)(F)F)c(Oc2cccc3c2C(=O)N(C)C32CC2)n1

>  <Vd>
5.14 L/kg

$$$$
>  <SMILES_CODE>
COc1cc(N2CC3(CCN(C)CC3)C2)c(F)cc1Nc1ncc(Cl)c(Oc2cccc3c2C(=O)N(C)C32CC2)n1

>  <Vd>
3.71 L/kg

$$$$
>  <SMILES_CODE>
COc1cc(N2CC3(CCN(C)CC3)C2)ccc1Nc1ncc(Br)c(Oc2cccc3c2C(=O)N(C)C32CC2)n1

>  <Vd>
7.51 L/kg

$$$$
>  <SMILES_CODE>
COc1cc(N2CC3(CCN(C)CC3)C2)c(F)cc1Nc1ncc(C(F)(F)F)c(Oc2cccc3c2C(=O)N(C)C32CC2)n1

>  <Vd>
6.15 L/kg

$$$$
>  <SMILES_CODE>
COc1cc(N2CCN(C)CC2)ccc1Nc1ncc(C(F)(F)F)c(Oc2cccc3c2C(=O)N(C)C32CC2)n1

>  <Vd>
5.67 L/kg

$$$$

Ask: Quote Vd reported for COc1cc(C(=O)NC2CCN(C)CC2)c(F)cc1Nc1ncc(Cl)c(Oc2cccc3c2C(=O)N(C)C32CC2)n1 please.
Reply: 3.47 L/kg

Ask: Give the reported Vd for this compound. COc1cc(N2CC3(CCN(C)CC3)C2)ccc1Nc1ncc(Cl)c(Oc2cccc3c2C(=O)N(C)C32CC2)n1
Reply: 4.15 L/kg

Ask: Given COc1cc(C(=O)NC2CCN(C)CC2)c(F)cc1Nc1ncc(C(F)(F)F)c(Oc2cccc3c2C(=O)N(C)C32CC2)n1 , respond with its Vd.
Reply: 4.35 L/kg

The reported numbers originate from patent US20250154134A1.
